read-out: Monokine induced gamma interferon (MIG), CXCL9 (gene 4283); experiment: BSK_hDFCGF_MIG: BioMAP Diversity Plus: hDFCGF Assay for Monokine induced gamma interferon (MIG) Biomarker Activity (AID 2283063); settings: primary human foreskin fibroblasts; actives raise or lower the signal
Activity calls are given as the source filed them. How the source made its calls: active means hit-call score of the fitted dose curve at least 0.9, where 1 is the maximum; inactive means score below 0.9.
Returns: one label drawn from T (active), F (inactive)

# compound, category
records = [
    ("CCOc1cc(C(C)(C)C)ccc1C1COC(c2c(F)cccc2F)=N1 (stereo unspecified)", "T"),
    ("CC1(C)C(C(=O)OC(C#N)c2cccc(Oc3ccccc3)c2)C1(C)C (stereo unspecified)", "F"),
    ("C=CCOC(=O)C(C)(C)OC(=O)c1cc(-n2c(=O)cc(C(F)(F)F)n(C)c2=O)ccc1Cl", "F"),
    ("CC1(C)C(C=C(Cl)Cl)C1C(=O)OC(C#N)c1cccc(Oc2ccccc2)c1 (stereo unspecified)", "F"),
    ("COc1ccc(-c2ccccc2)cc1NNC(=O)OC(C)C", "F"),
    ("COc1cc(OC)nc(NC(=O)NS(=O)(=O)c2ncccc2OCC(F)(F)F)n1", "F"),
    ("COCC(C)N(C(=O)CCl)c1c(C)csc1C (stereo unspecified)", "F"),
    ("Cn1c(-c2ccccc2)cc(-c2ccccc2)[n+]1C", "F"),
]

What outcome does the record of this test show for "CC(C)N1C(=O)N(c2ccccc2)CSC1=NC(C)(C)C" ? T

What outcome does the record of this test show for "CN/C(=N\[N+](=O)[O-])NCc1cnc(Cl)s1" ? F

What outcome does the record of this test show for "CCOc1nc(C(Cl)(Cl)Cl)ns1" ? F

====

Read-out: Collagen III, COL3A1 (gene 1281)
Assay: BSK_hDFCGF_CollagenIII: BioMAP Diversity Plus: hDFCGF Assay for Collagen III Biomarker Activity (AID 2283056)
Conditions: primary human foreskin fibroblasts; actives raise or lower the signal
Protocol: BSK_hDFCGF is a cell-based, multiplexed-readout assay that uses foreskin fibroblast, a human skin primary cell, with measurements taken at 24 hours after chemical dosing in a 96-well plate.BSK_hDFCGF_CollagenIII is an assay component measured in the BSK_hDFCGF assay. It measures Collagen antibody related to regulation of gene expression using ELISA technology.Data from the assay component BSK_hDFCGF_CollagenIII was analyzed into 1 assay endpoint. […]
The source made the active and inactive calls. Rule for the calls: active = hit-call score of the fitted dose curve at least 0.9, where 1 is the maximum; inactive = score below 0.9.
value type: outcome

# compound, outcome
data = [
    ("Clc1cccc(C(Cl)(Cl)Cl)n1", "inactive"),
    ("O=C(O)c1c(Cl)ccc2cc(Cl)cnc12", "inactive"),
    ("CC(C)C1(C)N=C(c2ncccc2C(=O)O)NC1=O (stereo unspecified)", "inactive"),
    ("CCN(CC)c1nc(C)cc(OP(=S)(OC)OC)n1", "inactive"),
    ("COP(=O)(OC)O/C(C)=C/C(=O)N(C)C", "inactive"),
]

Okay, now this compound:
Check the records and state outcome for CC1(C)CCC(=Cc2ccc(Cl)cc2)C1(O)Cn1cncn1 (stereo unspecified) inactive

====

Read-out: E-selectin (Homo sapiens)
Assay: BSK_3C_Eselectin: BioMAP Diversity Plus: 3C Assay for Eselectin Biomarker Activity (AID 2283015)
Settings: primary human endothelial cells (HUVEC); actives raise or lower the signal
Description: BSK_3C is a cell-based, multiplexed-readout assay that uses umbilical vein endothelium, a human vascular primary cell, with measurements taken at 24 hours after chemical dosing in a 96-well plate.BSK_3C_Eselectin is an assay component measured in the BSK_3C assay. It measures E-selectin antibody related to regulation of gene expression using ELISA technology.Data from the assay component BSK_3C_Eselectin was analyzed into 1 assay endpoint. […]
Activity calls are given as the source filed them. Rule for the calls: active = hit-call score of the fitted dose curve at least 0.9, where 1 is the maximum; inactive = score below 0.9.
Returns: one label drawn from YES for active, NO for inactive

Some solved cases for reference:
# molecule, category
measured = [
    ("N#Cc1c(Cl)cccc1Cl", "NO"),
    ("CCC(C)n1c(=O)[nH]c(C)c(Br)c1=O (stereo not given)", "NO"),
    ("Cn1c(-c2ccccc2)cc(-c2ccccc2)[n+]1C", "YES"),
]

What outcome does the record of this test show for "O=P(O)(O)CCCl" ? NO

What outcome does the record of this test show for Cc1cnc(C2=NC(C)(C(C)C)C(=O)N2)c(C(=O)O)c1 (stereo not given) ? NO

====

biological target: Sodium channel protein type 1 subunit alpha (Rattus norvegicus); experiment: NVS_IC_rNaCh_site2: NovaScreen (NVS) Ion Channel Assay for rat Sodium Channel, Site 2 (NaCh) (AID 2283322);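 further: hit means loss of radioligand binding signal relative to DMSO so AC50 marks displacement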
Records with an inconclusive call do not appear. Activity calls are given as the source filed them. The calls were made as follows: active = hit-call score of the fitted dose curve at least 0.9, where 1 is the maximum; inconclusive = response in the unintended direction; inactive = score below 0.9.
Returns: one label drawn from active, inactive

# compound, category
records = [
    ("CC(C)(C)C(=O)C(Oc1ccc(Cl)cc1)n1cncn1 (stereo not given)", "inactive"),
]

What outcome does the record of this test show for "CCNC(=O)NC(=O)C(C#N)=NOC" ? inactive

What outcome does the record of this test show for CCCCC(C#N)(Cn1cncn1)c1ccc(Cl)cc1 (stereo not given) ? active

What outcome does the record of this test show for "N#Cc1c[nH]cc1-c1cccc2c1OC(F)(F)O2" ? inactive

What outcome does the record of this test show for "N#Cc1c(Cl)cccc1Cl" ? active

====

assay: ATG_TA_CIS: Attagene CIS-FACTORIAL HepG2 Assay for human TA Basal Promoter (AID 2282964); details: HepG2 Attagene CIS-factorial TA basal promoter reporter; actives raise or lower the signal
Active and inactive are the calls of the source. How the source made its calls: active means hit-call score of the fitted dose curve at least 0.9, where 1 is the maximum; inactive means score below 0.9.
value type: outcome

Field: example entries. Status: answers known.
# compound, outcome
data = [
    ("CC(C)N1C(=O)c2ccccc2NS1(=O)=O", "inactive"),
    ("Nc1cnn(-c2ccccc2)c(=O)c1Cl", "inactive"),
    ("COC(=O)NC(=S)Nc1ccccc1NC(=S)NC(=O)OC", "inactive"),
    ("CN=C=S", "inactive"),
    ("O=C(O)c1c(Cl)ccc2cc(Cl)cnc12", "inactive"),
    ("COc1ccc(-c2ccccc2)cc1NNC(=O)OC(C)C", "inactive"),
    ("Clc1nc(Cl)nc(Nc2ccccc2Cl)n1", "inactive"),
    ("Cc1cc(C)nc(Nc2ccccc2)n1", "inactive"),
    ("O=C1C2CC=CCC2C(=O)N1SC(Cl)(Cl)Cl (configuration not stated)", "inactive"),
    ("CCCCC(C#N)(Cn1cncn1)c1ccc(Cl)cc1 (configuration not stated)", "inactive"),
]

// batch mode: one outcome value per listed entry
1. Nc1c(Cl)c(Cl)nc(C(=O)O)c1Cl
2. CC1(C)CON(Cc2ccccc2Cl)C1=O

["inactive", "inactive"]

====

test: Tanguay_ZF_120hpf_AXIS_legacy: (Legacy) Oregon State University Tanguay Lab 120 Hour Post-fertilization zebrafish Assay for Body Axis Malformation (AID 2283635)
Results filed as inconclusive are left out. The source made the active and inactive calls. How the source made its calls: active means hit-call score of the fitted dose curve at least 0.9, where 1 is the maximum; inconclusive means response in the unintended direction; inactive means score below 0.9.
Returns: one label drawn from active, inactive

Some solved cases for reference:
# compound, category
measured = [
    ("CCOP(=O)(OCC)Oc1nc(Cl)c(Cl)cc1Cl", "inactive"),
    ("N#Cc1c(Cl)cccc1Cl", "inactive"),
    ("C=CCOC(=O)C(C)(C)OC(=O)c1cc(-n2c(=O)cc(C(F)(F)F)n(C)c2=O)ccc1Cl", "inactive"),
    ("CN=C=S", "inactive"),
    ("Cn1c(-c2ccccc2)cc(-c2ccccc2)[n+]1C", "inactive"),
]

What outcome does the record of this test show for CCCCC(O)(Cn1cncn1)c1ccc(Cl)cc1Cl (stereo not drawn) ? inactive

What outcome does the record of this test show for "COP(=S)(OC)SCn1nnc2ccccc2c1=O" ? active

What outcome does the record of this test show for CC(C)(C)C(=O)C(Oc1ccc(Cl)cc1)n1cncn1 (stereo not drawn) ? active

What outcome does the record of this test show for "O=C(Nc1ccccc1-c1ccc(Cl)cc1)c1cccnc1Cl" ? inactive

What outcome does the record of this test show for "CC(C)N1C(=O)c2ccccc2NS1(=O)=O" ? inactive

What outcome does the record of this test show for "COP(=O)(OC)O/C(C)=C/C(=O)N(C)C" ? inactive

What outcome does the record of this test show for CCNP(=S)(OC)O/C(C)=C/C(=O)OC(C)C (stereo not drawn) ? inactive

What outcome does the record of this test show for CC(C)C1(C)N=C(c2ncccc2C(=O)O)NC1=O (stereo not drawn) ? inactive

====

Biological target: rat CYP2D2, Cyp2d26 (gene 25053) (UniProt P10634)
Sequence (P10634 whole entry, looked up): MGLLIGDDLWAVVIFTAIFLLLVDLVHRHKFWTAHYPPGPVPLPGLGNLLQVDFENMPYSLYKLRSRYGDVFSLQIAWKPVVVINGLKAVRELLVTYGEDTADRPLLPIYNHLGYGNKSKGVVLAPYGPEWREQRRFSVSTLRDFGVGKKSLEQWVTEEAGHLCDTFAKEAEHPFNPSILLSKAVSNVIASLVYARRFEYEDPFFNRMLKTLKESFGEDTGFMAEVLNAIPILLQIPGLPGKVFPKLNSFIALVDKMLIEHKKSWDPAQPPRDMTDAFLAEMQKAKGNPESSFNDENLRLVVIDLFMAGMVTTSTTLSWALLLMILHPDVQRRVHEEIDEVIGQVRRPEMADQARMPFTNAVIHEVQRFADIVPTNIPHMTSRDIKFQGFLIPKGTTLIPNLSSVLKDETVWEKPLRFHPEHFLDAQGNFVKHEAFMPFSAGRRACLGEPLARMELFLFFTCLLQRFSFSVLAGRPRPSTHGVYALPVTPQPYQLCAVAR
Assay: NVS_ADME_rCYP2D2: NovaScreen (NVS) CYP450-related Enzyme Activity (ADME) Assay for rat CYP2D2 (AID 2283124)
Description: NVS_ADME_rCYP2D2 is a biochemical, single-readout assay that uses extracted gene-proteins in a cell-free assay. Measurements were taken 0.75 hour after chemical dosing in a 96-well plate.NVS_ADME_rCYP2D2 is one of one assay component(s) measured or calculated from the NVS_ADME_rCYP2D2 assay. […] This assay endpoint, NVS_ADME_rCYP2D2, was analyzed in the positive analysis fitting direction relative to Acetonitrile as the negative control and baseline of activity. […]
Results filed as inconclusive are left out. The source made the active and inactive calls. The calls were made as follows: active = hit-call score of the fitted dose curve at least 0.9, where 1 is the maximum; inconclusive = response in the unintended direction; inactive = score below 0.9.
Returns: one label drawn from yes (1) (active), no (0) (inactive)

Some solved cases for reference:
# compound, assay target, category
rows = [
    ("Cn1c(-c2ccccc2)cc(-c2ccccc2)[n+]1C", "rat CYP2D2, Cyp2d26 (gene 25053) (UniProt P10634)", "yes (1)"),
    ("COP(=S)(OC)Oc1ccc([N+](=O)[O-])c(C)c1", "rat CYP2D2, Cyp2d26 (gene 25053) (UniProt P10634)", "yes (1)"),
    ("CCN(CC)C(=O)C(C)Oc1cccc2ccccc12 (centres undefined)", "rat CYP2D2, Cyp2d26 (gene 25053) (UniProt P10634)", "yes (1)"),
]

What outcome does the record of this test show for "CCNC(=O)NC(=O)C(C#N)=NOC" ? no (0)

What outcome does the record of this test show for CCCCC(O)(Cn1cncn1)c1ccc(Cl)cc1Cl (centres undefined) ? yes (1)

What outcome does the record of this test show for "CCCCOCN(C(=O)CCl)c1c(CC)cccc1CC" ? yes (1)

What outcome does the record of this test show for CC1(C)CCC(=Cc2ccc(Cl)cc2)C1(O)Cn1cncn1 (centres undefined) ? no (0)

What outcome does the record of this test show for "COP(=S)(OC)SCn1nnc2ccccc2c1=O" ? yes (1)

What outcome does the record of this test show for "CCOP(=S)(OCC)Oc1nc(Cl)n(C(C)C)n1" ? yes (1)
